Attribution: PubChem BioAssay (NCI)

Tested on: CCRF-CEM leukemia
Test: NCI-60 one-dose screen, 48 h
Conditions: 10 µM unless noted
This is part of a sample that, as a whole, favours compounds with a hit. Of some 83,000 tested, about 20% had one in any assay. The source made the active and inactive calls. The calls were made as follows: active = growth percent below 10; inactive = the rest.
Log the outcome using a class from active, inactive

Answered cases to consult:
| compound | studySystem | assignedLabel |
| --- | --- | --- |
| Cc1ccc2c(C(C[N+](=O)[O-])c3ccccc3)c(-c3ccccc3)[nH]c2c1 (stereo not given) | CCRF-CEM leukemia | inactive |
| NC(=O)c1cc(Cl)ccc1NC(=O)/C=C/c1ccccc1 | CCRF-CEM leukemia | active |
| CC/C=C\C/C=C\C[C@H]1C/C=C2/C(=O)C=C[C@@H]2C/C=C\CCC(=O)O1 | CCRF-CEM leukemia | active |
| C#CCOc1ccc2ncnc(N3CCC(NC(=O)CCl)CC3)c2c1 | CCRF-CEM leukemia | inactive |

For the next question, use this compound.
*Q* In this assay, the call recorded for `COc1ccc(/C=C/C(=O)c2ccc(O)c(CN3CCN(c4cc5c(cc4F)c(=O)c(C(=O)O)cn5C4CC4)CC3)c2)cc1` was what?
*A* inactive
